Target: α-Glucosidase (maltase from Saccharomyces cerevisiae) (Saccharomyces cerevisiae)
Construct: purchased Merck/Sigma-Aldrich
Sequence (P53341 whole entry): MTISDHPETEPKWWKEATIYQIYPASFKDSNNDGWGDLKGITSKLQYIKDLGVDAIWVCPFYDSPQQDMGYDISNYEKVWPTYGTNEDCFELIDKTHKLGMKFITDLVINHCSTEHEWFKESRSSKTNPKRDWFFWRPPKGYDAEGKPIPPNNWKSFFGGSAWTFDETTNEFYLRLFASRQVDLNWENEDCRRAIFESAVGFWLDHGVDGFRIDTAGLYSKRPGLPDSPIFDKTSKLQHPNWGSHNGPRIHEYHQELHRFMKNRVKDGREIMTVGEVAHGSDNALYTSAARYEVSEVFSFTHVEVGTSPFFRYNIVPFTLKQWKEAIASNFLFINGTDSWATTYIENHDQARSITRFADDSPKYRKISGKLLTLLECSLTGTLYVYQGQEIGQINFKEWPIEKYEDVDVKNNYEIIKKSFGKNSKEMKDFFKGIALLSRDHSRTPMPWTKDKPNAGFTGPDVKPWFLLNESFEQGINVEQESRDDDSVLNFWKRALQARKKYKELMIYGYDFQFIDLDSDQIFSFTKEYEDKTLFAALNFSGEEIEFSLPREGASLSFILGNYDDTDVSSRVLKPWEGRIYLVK
Assay: biochemical
Format: biochemical
observable: IC50 (µM)
Give bare numbers, in µM.

INSERT INTO results (substance_smiles, measured) VALUES
  ('O=c1cc(-c2ccc(O)c(O)c2)oc2cc(O)cc(O)c12', 1.4);

Turning now to a further record.
## Task # input molecule: C/C=C1/[C@H](O[C@@H]2O[C@H](CO)[C@@H](O)[C@H](O)[C@H]2O)OC=C(C(=O)OC)[C@H]1CC(=O)OCCc1ccc(O)c(O)c1 ; wanted: its IC50
## Result 5.74
